# Test system: RPMI-8226 leukemia
# Assay Notes: NCI tumour cell line growth inhibition, 48 h
Assay Readout: TGI

Need TGI, item `O=C1CCSCCC(=O)Nc2ccccc2N1`
> 100 µM

Can you look up the measured TGI of `COc1ccc(/C(Cl)=C(\C#N)c2ccc(OC)c(OC)c2)cc1OC` for me?
60.4 µM

Data request, read-out TGI, for C1=NC(N(Cc2ccccc2)Cc2ccccc2)N(Cc2ccccc2)N1 (stereo unspecified)
32.9 µM

Tell me the measured TGI of `CCc1nc(Cl)c(Cl)c(Cl)n1` , please.
> 100 µM

Name the reported TGI value associated with the molecule `O=c1[nH]c2nc3ccccc3c(=O)n2/c1=C/c1cccs1`
> 100 µM

Item CC1CCC(C(C)(C)c2ccccc2)C(=O)C1 (stereo unspecified) has what recorded TGI?
> 100 µM

# query: TGI of entry CNC(C)C(O)c1ccc2oc3cc(=O)c4ccccc4c-3nc2c1 (stereo unspecified)
> 100 µM

What value of TGI has been recorded for this entry: `COC(=O)[C@@H](NC(=O)N(Cc1ccccc1)C[C@H](CC(C)C)NC(=O)[C@@H](NC(=O)OC(C)(C)C)C(C)C)C(C)C`
> 100 µM

Report TGI for `O=C1C=C(Nc2ccc(S(=O)(=O)Nc3nccs3)cc2)c2ccccc2C1=O` please.
98.5 µM

What measured TGI goes with `COc1cc(/C=C/C(=O)Oc2ccccc2)ccc1C(=O)O/C=C/c1ccccc1` ?
> 100 µM

Could you tell me which TGI is on file for COc1ccc(C2COc3c(ccc(O)c3C)C2)cc1OC (stereo unspecified) ?
166 µM

* * *

# Tested on: HOP-62 NSCLC
# Assay Notes: NCI tumour cell line growth inhibition, 48 h
Everything with TGI lower than 30 µM is Condition not met; everything else, including exactly 30 µM, is Condition met.

Is it the case that `NCCCN(CCCN)CCc1cn(C(=O)c2ccccc2)cn1` has TGI reaching or exceeding 30 µM?
Condition not met

TGI >= 30 µM for `CS(=O)(=O)CS(=O)(=O)OCCCl` ?
Condition met

Would you say `COc1cc(/C=C/C(=O)Oc2ccccc2)ccc1C(=O)O/C=C/c1ccccc1` shows TGI at minimum 30 µM?
Condition met

Has `CCCn1cnc2c(SCc3ccc(Cl)cc3)nc(N)nc21` a recorded TGI greater than or equal to 30 µM?
Condition met

Given the entry `COC(=O)c1c[nH]cc1CCCCc1c[nH]cc1C(=O)OC` , answer whether its TGI meets or surpasses 30 µM.
Condition met

Given `Oc1c(Br)ccc2cccnc12` , state whether its TGI is at least 30 µM.
Condition met

Given `CC(=O)c1c(N=[N+]=[N-])c2cccc3c2n(c1=O)CCC3` , state whether its TGI is at least 30 µM.
Condition met

Threshold query (TGI >= 30 µM) on `NCCCOc1cc2ccccc2cc1C(=O)NCCCOc1cc2ccccc2cc1C(=O)Nc1ccc(Cl)cc1O`
Condition not met

Does `COc1cc(/C=N\O[Si](C)(C)C(C)(C)C)ccc1O[Si](C)(C)C(C)(C)C` have a reported TGI of at least 30 µM?
Condition met

Please indicate if the recorded TGI for CN1CCCOC(c2ccc(Cl)cc2)O1 (configuration not stated) meets or exceeds 30 µM.
Condition met

Hi, just wondering whether `Cn1cc(S(=O)(=O)N2CCC3=Cc4c(cnn4-c4ccc(F)cc4)C[C@]3(C(=O)c3cc(C(F)(F)F)ccn3)C2)cn1` shows TGI of 30 µM or higher.
Condition met

In plain terms: is recorded TGI at least 30 µM for `COc1cc2nc(-c3cccs3)nc(Cl)c2cc1OC` ?
Condition met

Textbook exercise: given the entry `CCOC(=O)c1c(OCC)[nH]c(=O)c(C(c2cccs2)c2c(O)c(C(=O)OCC)c(OCC)[nH]c2=O)c1O` , state whether its TGI is greater than or equal to 30 µM.
Condition met

Does `COc1cccc(CC(=O)N2CCN(CCCc3ccccc3)CC2)c1` have a reported TGI of at least 30 µM?
Condition met

Check this molecule for TGI at or above 30 µM: `O=P1(Cc2ccccc2)N(Cc2ccccc2)[C@@H]2CCCC[C@H]2N1Cc1ccccc1`
Condition met

Is reported TGI greater than or equal to 30 µM here: `NC(N)=N/N=C(\N=Nc1ccccc1)c1ccc(Cl)cc1`
Condition not met

Form field: TGI at least 30 µM? Entry: `O=C1C(Br)=CC2(C=C1Br)CCNC1=C2C(=O)c2ncccc2C1=O`
Condition not met

Is the recorded value of TGI equal to or greater than 30 µM for this molecule? `Cc1noc2c1-c1ccccc1C(c1ccc(Cl)cc1)=N[C@H]2CC(N)=O`
Condition met

Has `CC(=O)Nc1c(C(=N)C#N)ncn1CCO` a recorded TGI greater than or equal to 30 µM?
Condition met

Could you tell me if the measured TGI of `COc1cc(OC)c2sc(-c3ccc(-n4cncc4-c4cc(OC)c(OC)c(OC)c4)cc3)nc2c1` reaches 30 µM or more?
Condition met

Identify whether the reported TGI of the following molecule is 30 µM or greater: `COc1cc2c3c(n(CCCN(C)CCO)c(=O)c2cc1OC)-c1cc2c(cc1C3=O)OCO2`
Condition met

* * *

# Test system: HL-60(TB) leukemia
# Assay Notes: NCI tumour cell line growth inhibition, 48 h; in the data active means GI50 below about 0.43 µM; inactive means the rest
Hi there, use one of these labels in your reply, thanks! active, inactive

Per the assay record, what outcome was assigned to `COc1cc(OC)c2sc(-c3ccc(-n4cncc4-c4cc(OC)c(OC)c(OC)c4)cc3)nc2c1` ?
inactive

What was the test verdict on `CC1(C)N=C(N)N=C(N)N1c1cccc(OCCOc2cccc([N+](=O)[O-])c2)c1` ?
inactive

Dear all, I need the recorded test outcome for `Cn1cc(S(=O)(=O)N2CCC3=Cc4c(cnn4-c4ccc(F)cc4)C[C@]3(C(=O)c3cc(C(F)(F)F)ccn3)C2)cn1` , thank you.
inactive

# lookup: test call for `COC(=O)[C@]12CC[C@@H](C)[C@H](C)[C@@H]1C1=CC[C@@H]3[C@@]4(C)C(C=O)=C[C@@](C)(COC(=O)c5ccco5)[C@@H]4[C@H](O)C[C@@]3(C)[C@]1(C)CC2`
inactive

Recorded test outcome, item `O=C1c2ccccc2C(=O)c2c(NCCN=Cc3ccccc3O)cccc21`
active

What did the test return for `NCCCOc1cc2ccccc2cc1C(=O)NCCCOc1cc2ccccc2cc1C(=O)Nc1ccc(Cl)cc1O` ?
inactive

Outcome? `Clc1nc(Cl)c2ncn(Cc3ccccc3Cn3cnc4c(Cl)nc(Cl)nc43)c2n1`
inactive

* * *

# System: PC-3 prostate
# Assay Notes: NCI tumour cell line growth inhibition, 48 h
Assay Readout: log10 of TGI (log10 of the value in µM)
Please keep in mind that the values are log10 of TGI expressed in µM.

Hi! What's the reported log10 of TGI for `O=C(Cn1c2ccc(Br)cc2c2nc3ccccc3nc21)NNC(=S)NC1CCCCC1` on PC-3 prostate?
1.38

Write down the reported log10 of TGI of `COc1cc2c3c(n(CCCN(CCO)CCO)c(=O)c2cc1OC)-c1cc2c(cc1C3=O)OCO2` , test system: PC-3 prostate.
0.33

Hello, I am looking for reported log10 of TGI with PC-3 prostate for CC(=O)SC(C[N+](=O)[O-])c1ccc2c(c1)OCO2 (stereo not given) . Could you help?
1.46

What reported log10 of TGI corresponds to `COCCn1cnc2c(Cl)nc(Nc3ccccc3)nc21` on PC-3 prostate?
1.75

Quick check: log10 of TGI on PC-3 prostate, item `COc1ccc(-c2cc(Nc3ccnc(N4CCOCC4)n3)on2)cc1` ?
1.38

What log10 of TGI appears in the records for this compound with PC-3 prostate? `O=C1C(Br)=CC2(C=C1Br)CCNC1=C2C(=O)c2ncccc2C1=O`
0.93

* * *

Please go through the items and note down their TGI.
# Tested on: SNB-75 CNS
# Assay Notes: NCI tumour cell line growth inhibition, 48 h
Express your answer in µM, writing the number without its unit.

Query the reported TGI for SNB-75 CNS; item: `COc1ccc2c(c1)c(-c1nc(-c3c[nH]c4ncccc34)cs1)cn2CCCCN1CCCCC1`
2.68

Query the reported TGI for SNB-75 CNS; item: CCOC(=O)C(Cc1ccc(O)cc1)Nc1nc(=O)c2c(=O)oc(Cl)cc2o1 (stereo not given)
18.6

* * *

# Test system: T-47D breast
# Assay Notes: NCI tumour cell line growth inhibition, 48 h; in the data active means GI50 below about 0.43 µM; inactive means the rest
Mark one answer only. Choices: yes (active), no (inactive)

Tell me the recorded outcome of this test for `Nc1c(C(=O)Nc2ccccc2Cl)sc2nc3c(cc12)C(=O)CCC3` .
no

What outcome does the record of this test show for `COc1ccc(-c2ccc(NNC(=O)c3ccc(F)cc3)nn2)cc1OC` ?
no

Tell me the assay call for CNC(C)[C@H]1CCC2C3CC=C4C(=O)[C@@H](NC(=O)C=C(C)C)CC[C@]4(C)C3CC[C@@]21C (stereo not given in full) please.
no

Please let me know the test result on file for COc1cc(/C=C/C(=O)C(C(=O)/C=C/c2ccc(OC(=O)CCNC34CC5CC(CC(C5)C3)C4)c(OC)c2)C(=O)CCNC23CC4CC(CC(C4)C2)C3)ccc1OC(=O)CCNC12CC3CC(CC(C3)C1)C2 (stereo not given) .
no

I'd appreciate the recorded outcome for `COc1cc(C(=O)O[C@H](C(N)=O)[C@]2(C)CO2)c2cccc(C)c2c1` from this test.
no

Which outcome was assigned to `O=C(N/N=C/c1ccc(O)cc1O)c1cccnc1` in this test?
no

State the result this test recorded for `CC(=O)c1ccc2c(c1)C(=O)c1sc(C(C)=O)cc1C2=O` .
no

Which outcome did this test record for the compound NC(=O)CNc1ccc([As]=[As]c2ccc(NCC(N)=O)cc2)cc1 (stereo not given) ?
no

Hello, I am checking results. What call was entered for `C=CCn1c(SCC(=O)Nc2ccc(C(=O)/C=C/c3cc(OC)c(OC)c(OC)c3)cc2)nnc1-c1ccc(OC)cc1` ?
no

Which outcome was entered for the compound `c1ccc2c(c1)c1ccccc1c1ccccc21` in this test?
no

Recorded test outcome, item `O=C1c2ccccc2C(=O)c2c(NCCN=Cc3ccccc3O)cccc21`
no

Any idea what this test logged for `CC1(C)N=C(N)N=C(N)N1c1cccc(OCCOc2cccc([N+](=O)[O-])c2)c1` ?
no

What is the recorded call for this compound in the test? `O=C(Nc1ccc(Cl)cc1)Nc1nccs1`
no

Called result for `C=C(C)[C@@H]1CC[C@]2(C)[C@H](CC[C@@H]3[C@@H]([C@@](C)(O)CCC=C(C)C)CC[C@]32C)[C@@]1(C)CCC(=O)O`
no

// param item: `CNCCn1c(=O)c2cc(OC)c(OC)cc2c2cnc3cc4c(cc3c21)OCO4` ; yields the recorded call
yes
